Here the recorded DAR is given for each entry.
Assay type: physicochemical
PARTICULARS: ADC with Her2 antibody, RP-HPLC-MS
*1 amine or outer side, *2 acyl side, *3 side chain or, on linkers, in order; H or OH if unused. Where a SMILES comes first, the peptide text is derived from it. [ ]: non-standard residue; d: D form. The star is where a group is joined. X2 = CO[C@@H]([C@H]1CCCN1[*:1])[C@@H](C)C(=O)[*:2]; Propanoyl(3-maleimido) = O=C1C=CC(=O)N1CCC(=O)*; Dil = CC[C@H](C)[C@H](NC)[C@@H](CC(=O)O)OC; X1 = O=C(CN1CCOCCN([*:1])CCOCC1)[*:2]; PABC = O=C(OCc1ccc(N[*:1])cc1)[*:2]; X3 = C[C@@H](N*)[C@@H](O)c1ccccc1; NMeV = CN[C@H](C(=O)O)C(C)C
EXPERIMENTAL ENDPOINT: DAR

MOLECULE	EXPERIMENTAL ENDPOINT	NUMERIC READOUT
CC[C@H](C)[C@@H]([C@@H](CC(=O)N1CCC[C@@H]1[C@H](OC)[C@@H](C)C(=O)N[C@H](C)[C@@H](O)c1ccccc1)OC)N(C)C(=O)[C@@H](NC(=O)[C@H](C(C)C)N(C)C(=O)OCc1ccc(NC(=O)CNC(=O)[C@H](Cc2ccccc2)NC(=O)CNC(=O)CN2CCOCCN(C(=O)CCN3C(=O)C=CC3=O)CCOCC2)cc1)C(C)C [Example 86] ({Propanoyl(3-maleimido)}-[X1]GFG[PABC][NMeV]V[Dil][X2]-X3)	DAR	4.20
C=C1C[C@@H]2CC[C@@]34C[C@H]5OC6C(O[C@H]7CC[C@H](CC(=O)C[C@@H]8[C@@H](OC)[C@@H](C[C@H](O)CNC(=O)OCc9ccc(NC(=O)[C@H](CCCNC(N)=O)NC(=O)[C@@H](NC(=O)CN%10CCOCCN(C(=O)CCN%11C(=O)C=CC%11=O)CCOCC%10)C(C)C)cc9)O[C@H]8C[C@H]8O[C@@H](CC[C@@H]1O2)C[C@@H](C)C8=C)O[C@@H]7[C@@H]6O3)[C@H]5O4	DAR	3.85
CC[C@@]1(O)C(=O)OCc2c1cc1n(c2=O)Cc2c-1nc1cc(F)c(C)c3c1c2[C@@H](NC(=O)COCNC(=O)CNC(=O)CNC(=O)CNC(=O)CN1CCOCCN(C(=O)CCN2C(=O)C=CC2=O)CCOCC1)CC3	DAR	3.84
